- Test system: panel of approximately 60 cancer cell lines
- assay_notes: NCI-60 screen (SRB, 48 h), full panel
- test_settings: 1 dose 10 µM
reported_metric: number of cancer cell lines the compound was active against

smiles_entry=Cc1ccc(S(=O)(=O)OC[C@@]2(C)CC[C@]3(C)CC[C@]4(C)C(=C3C2)C=C[C@@H]2[C@@]3(C)CCCNC(C)(C)[C@@H]3CC[C@]24C)cc1 reported="40 cell lines"

====

- Test system: A498 (Renal cancer)
- assay_notes: NCI-60 screen (SRB, 48 h)
- test_settings: Homo sapiens, A498
reported_metric: GI50 (nM)

compound="C=C(C)C1CCC2(CO)CCC3(C)C(CCC4C5(C)CCCNC(C)(C)C5CCC43C)C12 (stereo not drawn)" measurement_unit=nM reported=2170
compound=C=C(C)[C@@H]1CC[C@]2(C)[C@H](CC=C3[C@@H]4[C@@H](C)[C@H](C)CC[C@]4(CO)CC[C@]32C)[C@@]1(C)CCCN measurement_unit=nM reported=3830
compound=CC1(C)CC[C@]23CC[C@]4(C)[C@H](CC[C@@H]5[C@@]6(C)CCCNC(C)(C)[C@@H]6CC[C@]54C)[C@H]2[C@H]1OC3 measurement_unit=nM reported=1680
compound=CC1(C)NCCC[C@]2(C)[C@H]3C=CC4=C5C[C@@](C)(CO)CC[C@]5(C)CC[C@@]4(C)[C@]3(C)CC[C@@H]12 measurement_unit=nM reported=11400
compound=C=C(C)[C@@H]1CC[C@]2(C)[C@H](C=CC3=C4C[C@@](C)(CO)CC[C@]4(C)CC[C@]32C)[C@@]1(C)CCCN measurement_unit=nM reported=1540
compound=Cc1ccc(S(=O)(=O)OC[C@]23CCC(C)(C)C[C@H]2C2=CC[C@@H]4[C@@]5(C)CCCNC(C)(C)[C@@H]5CC[C@@]4(C)[C@]2(C)CC3)cc1 measurement_unit=nM reported=5990

====

- Test system: MALME-3M (Melanoma)
- assay_notes: NCI-60 screen (SRB, 48 h)
- test_settings: Homo sapiens, read-out: LC50
reported_metric: CC50 (µM)

molecule="CC1(C)CC[C@]23CC[C@]4(C)[C@H](CC[C@@H]5[C@@]6(C)CCCNC(C)(C)[C@@H]6CC[C@]54C)[C@H]2[C@H]1OC3 [Compound 7, Azepanoallobetulin]" reported=6.72
molecule="Cc1ccc(S(=O)(=O)OC[C@@]2(C)CC[C@]3(C)CC[C@]4(C)C(=C3C2)C=C[C@@H]2[C@@]3(C)CCCNC(C)(C)[C@@H]3CC[C@]24C)cc1 [Compound 16]" reported=6.34
molecule="CC1(C)CC[C@]2(CO)CC[C@]3(C)C(=CC[C@@H]4[C@@]5(C)CCCNC(C)(C)[C@@H]5CC[C@]43C)[C@@H]2C1 [Compound 3, azepanoerythrodiol]" reported=6.27
molecule="C=C(C)[C@@H]1CC[C@]2(C)[C@H](C=CC3=C4C[C@@](C)(CO)CC[C@]4(C)CC[C@]32C)[C@@]1(C)CCCN [Compound 20]" reported=5.82
molecule="C[C@H]1[C@H](C)CC[C@]2(CO)CC[C@]3(C)C(=CC[C@@H]4[C@@]5(C)CCCNC(C)(C)[C@@H]5CC[C@]43C)[C@H]12 [Compound 4, azepanouvaol]" reported=7.08
molecule="C=C(C)C1CCC2(CO)CCC3(C)C(CCC4C5(C)CCCNC(C)(C)C5CCC43C)C12 (stereo not drawn) [Compound 1, Azepanobetulin]" reported=6.18
